log10(IC50) for assorted compounds
ASSAY SYSTEM: Cyclin-dependent kinase 4/cyclin D1 (Homo sapiens, UniProt P11802)
Sequence (P11802 whole entry): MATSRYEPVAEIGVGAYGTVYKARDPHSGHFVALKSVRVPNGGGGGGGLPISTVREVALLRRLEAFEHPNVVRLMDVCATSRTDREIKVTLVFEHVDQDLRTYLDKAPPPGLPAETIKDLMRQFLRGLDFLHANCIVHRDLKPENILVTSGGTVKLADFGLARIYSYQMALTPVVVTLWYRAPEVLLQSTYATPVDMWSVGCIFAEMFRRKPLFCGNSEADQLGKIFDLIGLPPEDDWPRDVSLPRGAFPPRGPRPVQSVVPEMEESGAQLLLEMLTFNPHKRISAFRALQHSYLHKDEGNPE
Sequence (P24385 whole entry, further chain): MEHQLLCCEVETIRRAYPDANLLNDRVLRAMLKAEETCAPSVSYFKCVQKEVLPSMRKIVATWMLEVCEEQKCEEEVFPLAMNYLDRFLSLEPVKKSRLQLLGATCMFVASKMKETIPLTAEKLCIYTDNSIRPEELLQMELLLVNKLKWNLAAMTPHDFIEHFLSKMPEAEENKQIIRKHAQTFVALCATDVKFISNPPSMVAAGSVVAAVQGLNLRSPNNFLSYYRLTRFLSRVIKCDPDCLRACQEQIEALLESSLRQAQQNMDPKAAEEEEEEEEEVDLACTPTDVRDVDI
PROTOCOL TEXT: Inhibition of recombinant human full-length GST-tagged CDK4/cyclinD1 expressed in baculovirus expression system using PEP as substrate incubated for 3 mins in presence of ATP by TR-FRET assay
Field: value | Transform: log10 | Quantity: IC50 | Unit: nM

Examples with their reported log10(IC50) follow.
COMPOUND	log10(IC50)
CC(C)N1CCN(c2ccc(Nc3ncc4c(n3)N(C3CCCC3)C3(CC(=O)NC3=O)C4)cc2)CC1 (configuration not stated)	1.45
CN1CCN(c2ccc(Nc3ncc4cc(C(=O)N(C)C)n(C56CC(C5)C6)c4n3)cc2)CC1	0.58
CN1CCN(C2CCN(c3ccc(Nc4ncc5cc(C(=O)N(C)C)n(C67CC(C6)C7)c5n4)cc3F)CC2)CC1	0.58

In the following, a different compound is considered.
Provide log10(IC50), tested on Cyclin-dependent kinase 4/cyclin D1 (Homo sapiens, UniProt P11802), for CN(C)C(=O)c1cc2cnc(Nc3ccc(N4CCNCC4)c(F)c3)nc2n1C12CC(C1)C2 .
0.62
